system: hACC2 (Homo sapiens)
Sequence (O00763 whole entry): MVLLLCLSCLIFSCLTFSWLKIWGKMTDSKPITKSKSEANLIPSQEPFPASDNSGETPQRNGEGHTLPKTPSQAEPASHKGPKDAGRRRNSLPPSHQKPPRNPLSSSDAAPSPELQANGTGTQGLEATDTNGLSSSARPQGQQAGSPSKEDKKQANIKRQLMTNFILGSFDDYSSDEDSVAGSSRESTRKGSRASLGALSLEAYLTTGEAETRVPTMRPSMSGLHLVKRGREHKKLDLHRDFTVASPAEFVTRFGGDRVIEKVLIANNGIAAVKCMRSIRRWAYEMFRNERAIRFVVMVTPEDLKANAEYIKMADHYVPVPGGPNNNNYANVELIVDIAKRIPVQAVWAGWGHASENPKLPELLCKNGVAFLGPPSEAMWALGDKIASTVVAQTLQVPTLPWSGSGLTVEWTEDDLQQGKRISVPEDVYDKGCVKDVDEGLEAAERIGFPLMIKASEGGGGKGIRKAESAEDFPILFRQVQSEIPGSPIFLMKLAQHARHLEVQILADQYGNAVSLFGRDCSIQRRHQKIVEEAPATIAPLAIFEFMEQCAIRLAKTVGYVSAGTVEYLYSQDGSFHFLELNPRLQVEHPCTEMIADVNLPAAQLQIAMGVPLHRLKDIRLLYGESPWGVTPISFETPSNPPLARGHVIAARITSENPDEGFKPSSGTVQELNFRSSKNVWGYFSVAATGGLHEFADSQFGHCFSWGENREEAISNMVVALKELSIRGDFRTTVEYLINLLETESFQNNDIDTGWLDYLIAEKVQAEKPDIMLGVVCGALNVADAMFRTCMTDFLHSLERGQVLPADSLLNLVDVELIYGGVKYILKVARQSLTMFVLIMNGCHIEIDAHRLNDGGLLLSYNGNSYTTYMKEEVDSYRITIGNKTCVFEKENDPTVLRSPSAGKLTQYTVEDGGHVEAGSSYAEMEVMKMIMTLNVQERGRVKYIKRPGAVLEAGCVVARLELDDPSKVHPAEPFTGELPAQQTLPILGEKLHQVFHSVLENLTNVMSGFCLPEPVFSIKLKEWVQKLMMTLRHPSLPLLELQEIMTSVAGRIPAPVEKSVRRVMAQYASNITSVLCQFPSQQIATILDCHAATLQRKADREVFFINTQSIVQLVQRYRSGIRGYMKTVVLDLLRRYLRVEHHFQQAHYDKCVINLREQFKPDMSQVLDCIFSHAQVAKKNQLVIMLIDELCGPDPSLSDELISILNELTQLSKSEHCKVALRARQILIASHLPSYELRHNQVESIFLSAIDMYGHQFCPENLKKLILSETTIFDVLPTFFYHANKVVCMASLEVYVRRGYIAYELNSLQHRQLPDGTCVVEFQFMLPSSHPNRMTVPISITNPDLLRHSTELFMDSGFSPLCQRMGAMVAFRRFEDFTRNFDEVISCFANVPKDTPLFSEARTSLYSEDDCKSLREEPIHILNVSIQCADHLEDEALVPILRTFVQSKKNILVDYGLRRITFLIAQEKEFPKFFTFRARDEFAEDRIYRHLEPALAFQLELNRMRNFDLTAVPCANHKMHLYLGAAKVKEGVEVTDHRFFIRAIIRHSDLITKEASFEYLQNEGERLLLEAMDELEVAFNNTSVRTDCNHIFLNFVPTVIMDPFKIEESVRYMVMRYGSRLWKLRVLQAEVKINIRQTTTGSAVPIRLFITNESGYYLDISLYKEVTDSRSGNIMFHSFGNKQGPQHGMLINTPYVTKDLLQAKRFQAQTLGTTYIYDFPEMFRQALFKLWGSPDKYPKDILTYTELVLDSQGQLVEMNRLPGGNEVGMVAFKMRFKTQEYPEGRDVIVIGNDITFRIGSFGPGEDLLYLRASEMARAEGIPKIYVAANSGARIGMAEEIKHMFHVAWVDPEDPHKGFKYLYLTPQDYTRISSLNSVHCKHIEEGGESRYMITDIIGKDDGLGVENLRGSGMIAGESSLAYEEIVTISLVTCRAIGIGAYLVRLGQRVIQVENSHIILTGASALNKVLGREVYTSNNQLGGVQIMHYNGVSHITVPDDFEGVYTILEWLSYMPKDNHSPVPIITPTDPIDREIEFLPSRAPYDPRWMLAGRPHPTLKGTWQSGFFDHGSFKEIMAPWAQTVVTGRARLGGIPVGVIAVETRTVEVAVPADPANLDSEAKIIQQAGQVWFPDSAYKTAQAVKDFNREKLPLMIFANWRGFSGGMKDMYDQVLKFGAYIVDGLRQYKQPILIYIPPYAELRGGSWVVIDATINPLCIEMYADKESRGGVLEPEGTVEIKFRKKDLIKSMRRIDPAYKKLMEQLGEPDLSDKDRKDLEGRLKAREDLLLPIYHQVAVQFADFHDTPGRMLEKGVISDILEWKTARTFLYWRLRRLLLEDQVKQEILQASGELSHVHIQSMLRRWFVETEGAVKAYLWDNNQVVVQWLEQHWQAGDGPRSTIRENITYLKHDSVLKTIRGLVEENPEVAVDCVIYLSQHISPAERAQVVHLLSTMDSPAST
assay-overview: In vitro ACC2 inhibition assay (ADP-Glo), human ACC2
Format: biochemical
stated-conditions: Table 2b (additional results)
measurement-name: IC50

* CCOC(=O)c1sc2c(c1C)c(=O)n([C@H](C)C(=O)NC(C)C)c(=O)n2C[C@H](OCCC#N)c1cc(F)ccc1OC | 0.3 to 3 nM

Request: Endpoint output: IC50 of `CCOC(=O)c1sc2c(c1C)c(=O)n([C@H](C)C(N)=O)c(=O)n2C[C@H](OCCC#N)c1cc(F)ccc1OC` . Value?
Response: 3 to 10 nM

Request: Endpoint output: IC50 of `CCOC(=O)c1sc2c(c1C)c(=O)n(C(C)(C)C(=O)N1CCCCC1)c(=O)n2C[C@H](OC(C)C)c1ccccc1OC` . Value?
Response: 10 to 40 nM

Request: Endpoint output: IC50 of `CCNC(=O)C(C)(C)n1c(=O)c2c(C)c(C(=O)OCC)sc2n(C[C@H](OC(C)C)c2ccccc2OC)c1=O` . Value?
Response: 10 to 40 nM

Request: Endpoint output: IC50 of `CCOC(=O)c1sc2c(c1C)c(=O)n(C(C)(C)C(=O)NC(C)C)c(=O)n2C[C@H](OCCC#N)c1cc(F)ccc1OC` . Value?
Response: 3 to 10 nM

----------
IC50 values for the compounds below.
system: fACC2 (UniProt Q00955)
Sequence (Q00955 whole entry): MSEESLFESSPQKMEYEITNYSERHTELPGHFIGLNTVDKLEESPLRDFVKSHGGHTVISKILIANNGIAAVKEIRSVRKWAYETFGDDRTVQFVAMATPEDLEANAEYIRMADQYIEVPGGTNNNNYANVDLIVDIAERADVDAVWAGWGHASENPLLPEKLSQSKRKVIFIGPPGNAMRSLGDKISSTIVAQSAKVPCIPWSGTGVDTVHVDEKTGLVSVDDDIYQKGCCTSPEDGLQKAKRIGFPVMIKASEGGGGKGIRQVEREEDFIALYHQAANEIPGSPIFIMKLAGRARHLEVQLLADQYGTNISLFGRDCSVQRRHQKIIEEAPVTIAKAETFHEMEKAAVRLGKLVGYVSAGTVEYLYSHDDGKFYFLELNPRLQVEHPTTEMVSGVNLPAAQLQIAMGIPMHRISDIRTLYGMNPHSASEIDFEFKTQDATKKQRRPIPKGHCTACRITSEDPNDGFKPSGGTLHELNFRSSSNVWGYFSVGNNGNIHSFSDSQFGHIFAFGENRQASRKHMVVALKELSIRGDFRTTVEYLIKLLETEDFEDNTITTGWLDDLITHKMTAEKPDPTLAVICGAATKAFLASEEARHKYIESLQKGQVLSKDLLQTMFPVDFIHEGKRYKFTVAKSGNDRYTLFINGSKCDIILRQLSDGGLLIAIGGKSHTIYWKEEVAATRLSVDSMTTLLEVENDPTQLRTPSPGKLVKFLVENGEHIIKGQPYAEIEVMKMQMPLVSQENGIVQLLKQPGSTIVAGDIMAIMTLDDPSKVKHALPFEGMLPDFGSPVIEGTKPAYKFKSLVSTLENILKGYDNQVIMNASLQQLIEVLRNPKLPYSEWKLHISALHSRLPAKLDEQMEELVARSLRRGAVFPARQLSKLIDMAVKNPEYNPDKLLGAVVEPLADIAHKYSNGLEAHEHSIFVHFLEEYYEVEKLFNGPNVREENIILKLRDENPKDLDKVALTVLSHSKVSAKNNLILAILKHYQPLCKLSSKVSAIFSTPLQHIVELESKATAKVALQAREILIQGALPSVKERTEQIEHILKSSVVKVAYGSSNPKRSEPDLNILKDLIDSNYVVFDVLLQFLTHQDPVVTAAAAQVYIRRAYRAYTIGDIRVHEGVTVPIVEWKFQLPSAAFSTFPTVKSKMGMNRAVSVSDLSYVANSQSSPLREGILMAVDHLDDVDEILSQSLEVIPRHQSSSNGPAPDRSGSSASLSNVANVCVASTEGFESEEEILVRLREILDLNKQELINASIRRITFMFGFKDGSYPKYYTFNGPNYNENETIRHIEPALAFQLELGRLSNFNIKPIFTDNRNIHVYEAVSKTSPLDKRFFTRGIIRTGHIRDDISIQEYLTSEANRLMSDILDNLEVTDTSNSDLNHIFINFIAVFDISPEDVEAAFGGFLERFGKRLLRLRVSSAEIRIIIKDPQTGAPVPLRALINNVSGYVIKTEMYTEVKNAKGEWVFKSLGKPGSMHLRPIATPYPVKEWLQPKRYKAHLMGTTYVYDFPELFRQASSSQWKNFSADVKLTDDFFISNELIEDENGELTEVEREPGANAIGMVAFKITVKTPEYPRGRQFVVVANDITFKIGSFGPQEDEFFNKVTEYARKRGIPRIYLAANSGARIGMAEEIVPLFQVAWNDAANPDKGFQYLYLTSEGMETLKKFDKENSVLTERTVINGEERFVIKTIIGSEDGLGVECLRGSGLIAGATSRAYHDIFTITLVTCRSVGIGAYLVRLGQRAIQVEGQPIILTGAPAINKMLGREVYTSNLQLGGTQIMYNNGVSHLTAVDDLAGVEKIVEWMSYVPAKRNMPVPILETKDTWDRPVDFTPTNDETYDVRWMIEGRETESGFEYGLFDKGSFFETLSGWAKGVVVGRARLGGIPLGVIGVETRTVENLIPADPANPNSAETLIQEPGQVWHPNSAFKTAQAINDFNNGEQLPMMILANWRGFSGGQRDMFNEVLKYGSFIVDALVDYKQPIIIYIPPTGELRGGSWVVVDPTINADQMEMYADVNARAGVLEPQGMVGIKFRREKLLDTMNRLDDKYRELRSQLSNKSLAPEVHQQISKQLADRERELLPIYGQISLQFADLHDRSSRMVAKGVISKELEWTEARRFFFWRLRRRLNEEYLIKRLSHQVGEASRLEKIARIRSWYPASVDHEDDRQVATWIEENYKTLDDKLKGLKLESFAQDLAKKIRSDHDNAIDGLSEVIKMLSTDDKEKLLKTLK
assay-overview: In vitro ACC2 inhibition assay (ADP-Glo), fungal ACC2
Assay type: biochemical
stated-conditions: Table 2b (additional results)

Record excerpt, results attached:
* CCOC(=O)c1sc2c(c1C)c(=O)n(C(C)(C)C(=O)NC(C)C)c(=O)n2CCc1cc(F)ccc1OCCC#N [Compound I-45] | 3 to 10 nM
* CCOC(=O)c1sc2c(c1C)c(=O)n(C(C)(C)C(=O)N1CCCC1)c(=O)n2C[C@H](OCCC#N)c1cc(F)ccc1OC [Compound I-16] | 0.3 to 3 nM
* CCOC(=O)c1sc2c(c1C)c(=O)n(C(C)(C)C(N)=O)c(=O)n2C[C@H](OCCC#N)c1cc(F)ccc1OC [Compound I-14] | 0.3 to 3 nM
* CCOC(=O)c1sc2c(c1C)c(=O)n([C@@H](C)C(=O)N1CCCC1)c(=O)n2C[C@H](OCCC#N)c1cc(F)ccc1OC [Compound I-23] | 3 to 10 nM
* CCOC(=O)c1sc2c(c1C)c(=O)n(C(C)(C)C(=O)NC(C)C)c(=O)n2C[C@H](OCC#N)c1cc(F)ccc1OC [Compound I-33] | 0.3 to 3 nM
* CCOC(=O)c1sc2c(c1C)c(=O)n(C(C)(C)C(=O)NC(C)C)c(=O)n2CCc1cc(F)ccc1OC [Compound I-40] | 3 to 10 nM

Now turn to the next compound.
Request: Endpoint output: IC50 of CCOC(=O)c1sc2c(c1C)c(=O)n([C@H](C)C(=O)N(C)C(C)C)c(=O)n2C[C@H](OCCO)c1cc(F)ccc1OC [Compound I-30] . Value?
Response: 0.3 to 3 nM
